Hi there, I'd appreciate the recorded TGI for every entry that follows.
Tested on: NCI-H226 lung
Experiment: NCI tumour cell line growth inhibition, 48 h

- compound: "COc1ccc(/C=C/c2cc(OC)c(OC)c(OC)c2)cc1"
  TGI: "> 87.7 µM"
- compound: "COc1cc2nc(N3CCCC3)nc(NCc3ccccc3)c2cc1OC"
  TGI: "40.4 µM"

# map each compound to its TGI
1. Nc1ccc(S(=O)(=O)c2ccc(NCN3C(=O)NC(=O)C(=O)C3=O)cc2)cc1
2. COc1ccc2c(c1)c(CC(=O)[Se]C)c(C)n2C(=O)c1ccc(Cl)cc1
3. Cc1ccc(S(=O)(=O)c2c(COC(=O)c3cccc(C)c3)c(-c3ccccc3)nn2C)cc1
4. Cc1c(C(=O)Nc2ccccc2)sc2ncn(Cc3cccc(Cl)c3)c(=O)c12

1. > 100 µM
2. > 0.27 µM
3. > 100 µM
4. 41.6 µM

# per-item lookup of TGI; items listed below
1. O=c1cc(N2CCCC2)[nH]c(=O)n1Cc1ccccc1
2. Nc1ncnc2c1N=C(c1ccc3c(c1)OCO3)CC(c1ccc([N+](=O)[O-])cc1)N2 (stereo unspecified)
3. NCCCC[C@@H]1NC(=O)[C@H]2CCCN2C(=O)[C@H](Cc2ccccc2)CNC(=O)[C@H](Cc2ccccc2)NC1=O
4. O=C1CCCCCCCCCCC1CN1CCCC1 (stereo unspecified)
5. CCOC(=O)CCC(NC(=O)OCc1ccccc1)C(=O)NC(CCC(=O)OCC)C(=O)NC(CCC(=O)OCC)C(=O)NC(CCC(=O)OCC)C(=O)NC(CCC(=O)OCC)C(=O)NC(CCC(=O)OCC)C(=O)NC(CCC(=O)OCC)C(=O)OCC (stereo unspecified)

> 100 µM
> 100 µM
> 37.5 µM
> 100 µM
> 100 µM

====

Kindly state TGI for each of the entries shown.
System: HS 578T breast
Experiment: NCI tumour cell line growth inhibition, 48 h

Sample answers from the record:
- compound: "OCC(O)C(O)C(O)C(O)c1nc2ccc(Cl)cc2[nH]1 (stereo not given)"
  experimental-endpoint: "TGI"
  assay-value: "> 100 µM"
- compound: "C[C@@H]1[C@H](C)N1CC(O)Cn1ccnc1[N+](=O)[O-] (stereo not given in full)"
  experimental-endpoint: "TGI"
  assay-value: "> 100 µM"
- compound: "Cc1c(Cl)cccc1C(=O)Nc1nc2c(s1)CN(C(=O)c1ccc(C(F)(F)F)cc1)CC2"
  experimental-endpoint: "TGI"
  assay-value: "> 50 µM"

Quick one: give me TGI for each item below, same order please.
1. O=C(N/N=C/C=C/c1ccc([N+](=O)[O-])o1)c1cc2ccccc2cc1O
2. Cc1ccc(S(=O)(=O)n2c3ccc(Br)cc3c3nc4ccccc4nc32)cc1

1. > 100 µM
2. > 100 µM

====

Tested on: SF-539 CNS
Assay: NCI tumour cell line growth inhibition, 48 h
experimental-endpoint: TGI

Here is how some compounds turned out for TGI.
- compound: "CC1(C)C2CCC13C(=O)C1OC3(C2)C2C(=O)c3ccccc3C(=O)C12 (stereo unspecified)"
  TGI: "> 100 µM"
- compound: "O=C(c1ccc(Cl)cc1Cl)C1[C@H]2C(=O)N(c3ccc(Cc4ccc(N5C(=O)[C@@H]6ON(c7ccccc7)C(C(=O)c7ccc(Cl)cc7Cl)[C@@H]6C5=O)cc4)cc3)C(=O)[C@H]2ON1c1ccccc1 (stereo partly specified)"
  TGI: "> 50 µM"
- compound: "O=C1c2cc3c(cc2[C@@H]2[C@H]1c1ccc([N+](=O)[O-])cc1C(=O)N2CCCBr)OCO3"
  TGI: "< 0.01 µM"
- compound: "CO/N=C1\\CC(NC(=O)CNC(=O)OC(C)(C)C)c2ccsc21 (stereo unspecified)"
  TGI: "> 100 µM"
- compound: "NC(=O)N/N=C1/CCC(O)CC1CC(=O)O (stereo unspecified)"
  TGI: "> 100 µM"

Provide TGI for all items below, preserving their order.
1. CC(=O)NCCC1CN(C(=O)/C=C/I)c2ccccc21 (stereo unspecified)
2. NNC(=O)C1CCC(=O)N1S(=O)(=O)c1ccccc1 (stereo unspecified)
3. C[C@H](NC(=O)C(Cc1ccccc1)(Cc1ccc(O)cn1)NC(=O)c1ccccc1)c1ccccc1 (stereo partly specified)
4. COc1cc(OC)c(C/C=C/c2ccccc2)cc1O
5. O=C(Nc1cccc(-n2cc(-c3ccncc3)c(-c3ccc(Cl)c(O)c3)n2)c1)Nc1cc(C(F)(F)F)cc(C(F)(F)F)c1
6. CC1(C)CC(O)C(C)(C)[C@@H](O)C1 (stereo partly specified)
7. Cn1ncnc1[C@H]1c2n[nH]c(=O)c3cc(F)cc(c23)N[C@@H]1c1ccc(F)cc1

1. 21.1 µM
2. > 100 µM
3. 34.2 µM
4. 29.7 µM
5. 1.53 µM
6. > 100 µM
7. > 100 µM

Look at each compound and report its TGI.
1. COc1cccc(-c2c[nH]c3c(N/N=C/c4ccncc4)ncnc23)c1
2. C=C/C(C)=C\CC1[C@](C)(O)CC[C@H]2C(C)(C)C(=O)CC[C@]12C (stereo partly specified)
3. CN1CCN(C(=O)C(C)(C)c2ccc(C(=O)Nc3cn4cc(-c5ccncc5)ccc4n3)cc2)CC1
4. CN(C)c1ccc(/C(F)=C(F)/C(F)=C(F)/C(F)=C(\F)c2ccc(Br)cc2)cc1

["6.81 µM", "> 100 µM", "1.17 µM", "> 100 µM"]

====

Tested on: M14 melanoma
Assay: NCI tumour cell line growth inhibition, 48 h
experimental-endpoint: TGI (µM)
Answers are plain numbers, in µM.

Past entries and their recorded results:
- molecule: "CN(C)CCN1C(=O)c2c(c3c4ccccc4n4c3c3c2c2ccccc2n3C2CC(O)C(O)C4(C)O2)C1=O (configuration not stated)"
  TGI (µM): 7.47
- molecule: "Cc1cc2c(C(C)C)c(O)c(O)cc2c(O)c1-c1c(C)cc2c(C(C)C)c(O)c(O)cc2c1O"
  TGI (µM): 27.6
- molecule: "COC(=O)C1(Cc2ccc3c(c2)CCC3)Cc2ccccc2C1O (configuration not stated)"
  TGI (µM): 34.9

Hi! Can you tell me TGI for each of these molecules?
1. Cc1cc(-c2nc3cc(F)ccc3s2)ccc1NC(=O)[C@@H](N)CCCCN
2. CCCCCCCCCCCCCCCC(=O)OCC1OC(n2cc(F)c(=O)[nH]c2=O)C(N)C(O)C1O (configuration not stated)
3. CC(=O)NCCC1CN(C(=O)/C=C/I)c2ccccc21 (configuration not stated)
4. O=C(Nc1cccc(-n2cc(-c3ccncc3)c(-c3ccc(Cl)c(O)c3)n2)c1)Nc1cc(C(F)(F)F)cc(C(F)(F)F)c1

4.86
32.8
8.5
1.9

// batch mode: one TGI value per listed entry
1. CCCCCCCC/C=C\CCCCCCC/C=C1\C[C@](/C=C/C(=O)OC)(CO)OC1=O
2. CSCCC(N)C(=O)NCCNc1ccc(NCCNC(=O)C(N)CCSC)c2c1C(=O)c1ccccc1C2=O (configuration not stated)
3. O=C(C/C(=N/O)C(=O)NC1=C(Cl)C(=O)c2ccccc2C1=O)CC(c1ccccc1)c1c(O)c2ccccc2oc1=O (configuration not stated)
4. CSC1=C(N)C(=O)c2[nH]cc(CO)c2C1=N

1. 4.34
2. 12
3. 18.6
4. 0.285

====

I'd appreciate it if you could supply TGI values for the items below.
Test system: HL-60(TB) leukemia
Assay: NCI tumour cell line growth inhibition, 48 h

Please review the entries below; each comes with its answer.
- compound: "C=C[C@@H](C)[C@H](NS(=O)(=O)c1ccc(C)cc1)C(=O)OCC"
  TGI: "> 100 µM"
- compound: "CCOC(=O)CCC(NC(=O)OCc1ccccc1)C(=O)NC(CCC(=O)OCC)C(=O)NC(CCC(=O)OCC)C(=O)NC(CCC(=O)OCC)C(=O)NC(CCC(=O)OCC)C(=O)NC(CCC(=O)OCC)C(=O)NC(CCC(=O)OCC)C(=O)OCC (stereo not given)"
  TGI: "> 100 µM"
- compound: "CCOC(=O)/C(C1=NCCN1)=C(\\O)c1ccccc1"
  TGI: "> 100 µM"
- compound: "O=C(O)CC[C@H](NC(=O)c1ccc(-n2nc3ccc(O)cc3nc2=O)cc1)C(=O)O"
  TGI: "> 100 µM"

Need TGI, item CC1(C)C2CCC13C(=O)C1OC3(C2)C2C(=O)c3ccccc3C(=O)C12 (stereo not given)
> 100 µM

====

Test system: A549 NSCLC
Experiment: NCI tumour cell line growth inhibition, 48 h; in the data active = GI50 below about 0.43 µM; inactive = the rest
Select the correct class. Options are active, inactive and nothing else.

- molecule: "C=C1C(O)C2C(=C(CC)C13CC3)C(=O)C(C)(C)C2OC (configuration not stated)"
  category: "inactive"
- molecule: "Cc1cc2c(C(C)C)c(O)c(O)cc2c(O)c1-c1c(C)cc2c(C(C)C)c(O)c(O)cc2c1O"
  category: "inactive"
- molecule: "Cc1c(C(=O)Nc2ccccc2)sc2ncn(Cc3cccc(Cl)c3)c(=O)c12"
  category: "inactive"
- molecule: "COc1cc2nc(N3CCCC3)nc(NCc3ccccc3)c2cc1OC"
  category: "inactive"
- molecule: "COc1ccc(CCN2CC=Cn3c2nc2ccccc2c3=O)cc1"
  category: "active"
- molecule: "CN(C)CCN1C(=O)c2c(c3c4ccccc4n4c3c3c2c2ccccc2n3C2CC(O)C(O)C4(C)O2)C1=O (configuration not stated)"
  category: "inactive"
- molecule: "COc1cc(C(=O)c2c(-c3ccccc3)oc3c(OC)cccc23)cc(OC)c1OC"
  category: "active"
- molecule: "COc1ccc2c(CN3CCCC[C@H]3C(=O)O)cc3cc4c(cc3c2c1)OCO4"
  category: "inactive"
- molecule: "O=C(Nc1cccc(-n2cc(-c3ccncc3)c(-c3ccc(Cl)c(O)c3)n2)c1)Nc1cc(C(F)(F)F)cc(C(F)(F)F)c1"
  category: "active"
- molecule: "N#C/C(=C\\c1ccsc1)c1nc2ccccc2o1"
  category: "inactive"

Given Cc1ccccc1OCC(O)CN1CCN(c2ccc(Cl)cc2)CC1 (configuration not stated) , state the outcome it received in this test.
inactive

Likewise for `CCCCOC(=O)N1CCN(/[N+]([O-])=N/Oc2ccc([N+](=O)[O-])cc2[N+](=O)[O-])CC1` ?
inactive
